# Tested on: Scopulariopsis brumptii
# TEST METHOD NOTES: Fungistatic or fungicidal properties of reagents (TSB flasks, then MEA plates); further: key: −: no growth was observed; +: growth was observed
# Format: cell-based
# MEASUREMENT SETUP: 1 mL of flask plated on day 28 onto MEA plate, room temperature, 14 days
OUTCOME MEASURE: Growth on MEA plates (Day 14)

COMPOUND	OUTCOME MEASURE	REPORTED VALUE
CCC(=O)O	Growth on MEA plates (Day 14)	+
CCC(=O)[O-].[Na+] [Trt 10, sodium propionate]	Growth on MEA plates (Day 14)	+
O=C(O)CC(O)(CC(=O)O)C(=O)O	Growth on MEA plates (Day 14)	−
OO [Trt 3, hydrogen peroxide]	Growth on MEA plates (Day 14)	−
